Provenance of the data: patent US20240360228A1

target-or-test-system: T1, human chemokine (C-C motif) receptor 8 (CCR8) (human, UniProt P51685 1-355)
T1 construct: On human peripheral blood lymphocytes / PBMC (native) or on human CCR8 GFP-transfected Ba/F3 cells; also called hCCR8; human CCR8
T1 sequence (P51685 whole entry): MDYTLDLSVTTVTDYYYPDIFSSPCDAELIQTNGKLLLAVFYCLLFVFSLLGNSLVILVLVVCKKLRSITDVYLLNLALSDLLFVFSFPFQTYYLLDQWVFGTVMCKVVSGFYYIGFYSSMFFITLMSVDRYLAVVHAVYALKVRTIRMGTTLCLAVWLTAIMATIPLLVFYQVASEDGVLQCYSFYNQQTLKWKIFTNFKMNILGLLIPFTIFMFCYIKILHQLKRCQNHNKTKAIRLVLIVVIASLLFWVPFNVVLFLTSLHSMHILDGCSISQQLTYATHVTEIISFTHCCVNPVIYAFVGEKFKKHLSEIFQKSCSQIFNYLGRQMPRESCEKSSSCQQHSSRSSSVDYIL
protocol-text: flow cytometry blocking, PBMC CCR8+ CD4+ cells; competitor PE-AB11 (its MFI is read)
endpoint-label: % Blocking (%)
Write down the numeric answer in % and omit the unit.

| binder | result-number |
| --- | --- |
| AB8 (antibody, V domains shown, Hybridoma monoclonal; also called antibody 8; clone 8) VH: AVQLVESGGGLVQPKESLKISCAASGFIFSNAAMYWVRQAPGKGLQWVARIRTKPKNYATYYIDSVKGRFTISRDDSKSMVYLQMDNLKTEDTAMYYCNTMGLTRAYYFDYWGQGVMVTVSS VL: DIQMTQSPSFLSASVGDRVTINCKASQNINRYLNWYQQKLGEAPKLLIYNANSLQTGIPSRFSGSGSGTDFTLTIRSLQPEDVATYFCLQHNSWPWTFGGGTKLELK | 40.4 |

The recorded % Blocking for entry AB2 (antibody, V domains shown, Hybridoma monoclonal; also called antibody 2; clone 2) VH: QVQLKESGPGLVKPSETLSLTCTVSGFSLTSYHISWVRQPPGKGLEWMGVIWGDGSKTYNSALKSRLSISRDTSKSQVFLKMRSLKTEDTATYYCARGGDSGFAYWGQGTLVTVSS VL: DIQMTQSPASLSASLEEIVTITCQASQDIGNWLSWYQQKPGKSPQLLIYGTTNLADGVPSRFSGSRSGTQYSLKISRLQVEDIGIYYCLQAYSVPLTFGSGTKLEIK equals -7.68

The recorded % Blocking for entry AB13 (antibody, V domains shown, Hybridoma monoclonal; also called antibody 13; clone 13) VH: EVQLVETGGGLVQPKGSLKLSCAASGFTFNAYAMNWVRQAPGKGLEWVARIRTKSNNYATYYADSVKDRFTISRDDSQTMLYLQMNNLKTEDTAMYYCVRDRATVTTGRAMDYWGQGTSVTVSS VL: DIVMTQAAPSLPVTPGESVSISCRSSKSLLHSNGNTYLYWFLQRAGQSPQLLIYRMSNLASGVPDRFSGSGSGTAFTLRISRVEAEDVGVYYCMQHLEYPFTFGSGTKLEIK equals 37.7

The recorded % Blocking for entry AB1 (antibody, V domains shown, Hybridoma monoclonal (mice or rats immunised); Used purified and PE-conjugated; also called antibody 1; clone 1) VH: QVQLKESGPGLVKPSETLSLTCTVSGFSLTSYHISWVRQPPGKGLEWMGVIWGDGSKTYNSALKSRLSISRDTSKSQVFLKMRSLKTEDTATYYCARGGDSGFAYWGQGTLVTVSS VL: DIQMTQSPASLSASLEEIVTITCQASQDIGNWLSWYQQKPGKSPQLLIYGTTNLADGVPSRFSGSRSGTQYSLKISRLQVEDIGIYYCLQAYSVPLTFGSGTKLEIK equals -4.76
